Biological target: MCR-1 (Homo sapiens, UniProt Q01726)
Construct: expressed in transfected cells; host or cells: HEK 293
Sequence (Q01726 whole entry): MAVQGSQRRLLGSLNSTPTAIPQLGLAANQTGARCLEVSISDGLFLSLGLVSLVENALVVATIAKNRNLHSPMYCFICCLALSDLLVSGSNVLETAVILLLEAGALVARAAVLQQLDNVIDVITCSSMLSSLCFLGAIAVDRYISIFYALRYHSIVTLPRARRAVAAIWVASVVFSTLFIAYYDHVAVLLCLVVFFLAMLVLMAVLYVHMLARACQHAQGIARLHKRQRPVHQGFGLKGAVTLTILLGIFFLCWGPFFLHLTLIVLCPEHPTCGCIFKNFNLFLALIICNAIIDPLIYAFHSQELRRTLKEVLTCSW
Test: Melanocortin receptor binding assay, competition with 125I-HP 467, HEK 293 cells expressing hMCR-1
Details: TRG 2408 and TRG 2409 libraries; inhibition of 125I-HP 467 binding; read-out: MC-1 IC50
parameter_measured: pIC50
pIC50 (log units): -log10 of the concentration in mol/L.

Examples with their reported pIC50 follow.
NC[C@@H](CCCCN1Cc2ccccc2C(CNC2CCCCC2)C1c1ccc(Cl)cc1Cl)NCCc1ccccc1 (stereo partly shown) = 5.71
CCNc1ccc(C2C(CNC3CCCCC3)c3ccccc3CN2CCCC(CN)NCCNC)cc1 (stereo not shown) = 5.57
CCNc1ccc(C2C(CNC3CCCCC3)c3ccccc3CN2CCCC(N)CN)cc1 (stereo not shown) = 6.16
CNCCNC(CN)CCN1Cc2ccccc2C(CNC2CCCCC2)C1c1ccc(-c2ccccc2)cc1 (mixture of isomers) = 5.49
NCC(CCCN1Cc2ccccc2C(CNC2CCCCC2)C1c1ccc(-c2ccccc2)cc1)NCCc1ccccc1 (stereo not shown) = 4.99

Pending compound:
**Query** # value lookup — system MCR-1 (Homo sapiens, UniProt Q01726), readout pIC50, item CCNc1ccc(C2C(CNC3CCCCC3)c3ccccc3CN2CCCCC(CN)NCCN)cc1 (stereo not shown) [TRG 2408-33]
**Result** 5.97

* * *

Molecular target: MCR-1 (Homo sapiens)
Construct: expressed in transfected cells; host or cells: HEK 293
Test: Melanocortin receptor binding assay, competition with 125I-HP 467, HEK 293 cells expressing hMCR-1
Conditions: displacement of 125I-HP 467 at 10 μM isoquinoline compound; second of duplicate
Description: All cell culture media and reagents were obtained from GibcoBRL (Gaithersburg Md.), except for COSMIC CALF SERUM (HyClone; Logan Utah). Cells were suspended in PBS, 10% COSMIC CALF SERUM and 1 mM CaCl2. […] To assay isoquinoline compounds, binding assays were performed in duplicate in a 96 well format. […] Cells were harvested on GF/B filter plates as described above and counted.
# % Disp. MC-1 10 μM listing for each entry below
Reply with just the number (in %).

Examples with their reported % Disp. MC-1 10 μM follow.
CCCOc1ccc(C2C(CNC3CCCCC3)c3ccccc3CN2CCN)cc1 (centres unmarked) = 60.5
CNC(CN)CN1Cc2ccccc2C(CNC2CCCCC2)C1c1cc(Cl)cc(Cl)c1 (mixture of isomers) = 54.3
NCCN1Cc2ccccc2C(CNC2CCCCC2)C1c1cccc2c1OCO2 (centres unmarked) = 26.1
CNC(CN)CN1Cc2ccccc2C(CNC2CCCCC2)C1c1ccc(F)cc1 (centres unmarked) = 55.6

Pending compound:
**Query** What value of measured % Disp. MC-1 10 μM is listed for CNC(CN)CN1Cc2ccccc2C(CNC2CCCCC2)C1c1ccccn1 (centres unmarked) ?
**Result** 51

* * *

Biological target: MCR-4 (Homo sapiens)
Construct: expressed in transfected cells; host or cells: HEK 293
Sequence (P32245 whole entry): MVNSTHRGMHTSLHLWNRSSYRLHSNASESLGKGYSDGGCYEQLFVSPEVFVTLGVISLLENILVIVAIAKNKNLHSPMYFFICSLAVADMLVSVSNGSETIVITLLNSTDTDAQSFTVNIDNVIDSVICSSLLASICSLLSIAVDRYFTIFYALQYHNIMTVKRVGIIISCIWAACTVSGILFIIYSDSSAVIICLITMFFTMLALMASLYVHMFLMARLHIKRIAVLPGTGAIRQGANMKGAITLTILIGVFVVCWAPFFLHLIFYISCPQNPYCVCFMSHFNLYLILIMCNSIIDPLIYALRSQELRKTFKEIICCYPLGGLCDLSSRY
Test: Melanocortin receptor binding assay, competition with 125I-HP 467, HEK 293 cells expressing hMCR-4
Conditions: inhibition of binding of 125I-HP 467, HEK 293 cells expressing MCR-4; TRG 2414 library; read-out: MC-4 IC50
# pIC50 listing for each entry below
pIC50 (log units): -log10 of the concentration in mol/L.

NCC(N)CCCCN1Cc2ccccc2C(CNCc2ccccc2)C1c1cccc(Oc2ccccc2)c1 (stereo not shown) = 6.04
COc1ccc(CCNCC2c3ccccc3CN(CCCCC(N)CN)C2c2ccc(Oc3ccccc3)cc2)cc1 (stereo not shown) = 5.46
NCC(CCCCN1Cc2ccccc2C(CNCc2ccccc2)C1c1ccc(Oc2ccccc2)cc1)NCc1ccccc1 (stereo not shown) = 4.83
NCC(N)CCCCN1Cc2ccccc2C(CNCCc2cccc(Cl)c2)C1c1ccc(Cl)cc1Cl (stereo not shown) = 5.93
NCC(CCCCN1Cc2ccccc2C(CNCc2ccccc2)C1c1ccc(Oc2ccccc2)cc1)NCCc1ccccc1 (stereo not shown) = 4.79
NCC(CCCCN1Cc2ccccc2C(CNC2CCCCCC2)C1c1ccc(Oc2ccccc2)cc1)NCCc1ccccc1 (stereo not shown) = 5.12

Pending compound:
**Query** # value lookup — system MCR-4 (Homo sapiens), readout pIC50, item NCC(N)CCCCN1Cc2ccccc2C(CNC2CCCCCC2)C1c1cc(C(F)(F)F)cc(C(F)(F)F)c1 (stereo not shown)
**Result** 6.00

* * *

Biological target: MCR-4 (Homo sapiens)
Construct: expressed in transfected cells; host or cells: HEK 293
Assay: Melanocortin receptor binding assay, competition with 125I-HP 467, HEK 293 cells expressing hMCR-4
Settings: inhibition of binding of 125I-HP 467, HEK 293 cells expressing MCR-4; TRG 2414 library; read-out: MC-4 IC50
# pIC50 listing for each entry below
pIC50 (log units): -log10 of the concentration in mol/L.

CCOc1ccccc1CNCC1c2ccccc2CN(CCCCC(N)CN)C1c1cc(C(F)(F)F)cc(C(F)(F)F)c1 (centres unmarked) [TRG 2414-45] = 6.04
CCOc1ccccc1CNCC1c2ccccc2CN(CCCCC(CN)NCCc2ccccc2)C1c1cc(C(F)(F)F)cc(C(F)(F)F)c1 (centres unmarked) [TRG 2414-46] = 5.37
COc1ccccc1CCNCC1c2ccccc2CN(CCCCC(CN)NCCc2ccccc2)C1c1ccc(Oc2ccccc2)cc1 (centres unmarked) [TRG 2414-130] = 4.87
CCCOc1ccc(C2C(CNCc3ccccc3C(F)(F)F)c3ccccc3CN2CCCCC(CN)NCCc2ccccc2)cc1 (mixture of isomers) [TRG 2414-162] = 4.73

**Query** What value of measured pIC50 is listed for CCCOc1ccc(C2C(CNCCc3ccccc3OC)c3ccccc3CN2CCCCC(CN)NCc2ccccc2)cc1 (centres unmarked) [TRG 2414-171] ?
**Result** 5.32

**Query** What value of measured pIC50 is listed for COc1ccc(CNCC2c3ccccc3CN(CCCCC(CN)NCCc3ccccc3)C2c2ccc(Cl)cc2Cl)cc1 (centres unmarked) [TRG 2414-22] ?
**Result** 5.30

**Query** What value of measured pIC50 is listed for NCC(CCCCN1Cc2ccccc2C(CNC2CCCCCC2)C1c1cccc(Oc2ccccc2)c1)NCc1ccccc1 (centres unmarked) [TRG 2414-115] ?
**Result** 5.25

**Query** What value of measured pIC50 is listed for COc1ccc(CNCC2c3ccccc3CN(CCCCC(CN)NCC(C)c3ccc(CC(C)C)cc3)C2c2ccc(Cl)cc2Cl)cc1 (centres unmarked) [TRG 2414-24] ?
**Result** 4.43

**Query** What value of measured pIC50 is listed for COc1ccccc1CCNCC1c2ccccc2CN(CCCCC(CN)NCCc2ccccc2)C1c1cccc(Oc2ccccc2)c1 (centres unmarked) [TRG 2414-90] ?
**Result** 5.39

**Query** What value of measured pIC50 is listed for NCC(CCCCN1Cc2ccccc2C(CNC2CCCCC2)C1c1cccc(Oc2ccccc2)c1)NCc1ccccc1 (centres unmarked) [TRG 2414-119] ?
**Result** 5.32

**Query** What value of measured pIC50 is listed for NCC(CCCCN1Cc2ccccc2C(CNCc2ccccc2C(F)(F)F)C1c1cccc(Oc2ccccc2)c1)NCCc1ccccc1 (mixture of isomers) [TRG 2414-82] ?
**Result** 4.37

**Query** What value of measured pIC50 is listed for NCC(CCCCN1Cc2ccccc2C(CNCc2ccccc2)C1c1ccc(Cl)cc1Cl)NCCc1ccccc1 (centres unmarked) [TRG 2414-30] ?
**Result** 5.21

**Query** What value of measured pIC50 is listed for COc1cccc(CNCC2c3ccccc3CN(CCCCC(N)CN)C2c2cccc(Oc3ccccc3)c2)c1 (mixture of isomers) [TRG 2414-97] ?
**Result** 5.60

**Query** What value of measured pIC50 is listed for NCC(CCCCN1Cc2ccccc2C(CNCCc2cccc(Cl)c2)C1c1cc(C(F)(F)F)cc(C(F)(F)F)c1)NCCc1ccccc1 (centres unmarked) [TRG 2414-54] ?
**Result** 5.51

* * *

Target: MCR-1 (Homo sapiens, UniProt Q01726)
Construct: expressed in transfected cells; host or cells: HEK 293
Assay: Melanocortin receptor binding assay, competition with 125I-HP 467, HEK 293 cells expressing hMCR-1
Conditions: competition with 125I-HP 467, HEK 293 cells expressing MCR-1; read-out: MC-1 IC50
parameter_measured: pIC50
pIC50 (log units): -log10 of the concentration in mol/L.

CCNc1ccc(C2C(CNCCc3ccccc3)c3ccccc3CN2CCCCC(CN)NCCc2ccc3ccccc3c2)cc1 (stereo not shown) [TRG 2411-46] = 6.05
NC[C@H](CCCCN1Cc2ccccc2C(CNCCc2ccccc2)C1c1ccc(-c2ccccc2)cc1)NCCc1ccccc1 (stereo partly shown) [TRG 2411-3] = 6.06
CCCCNc1ccc(C2C(CNCCc3ccccc3)c3ccccc3CN2CCCCC(CN)NCc2ccc(OC)cc2)cc1 (stereo not shown) [TRG 2411-82] = 6.54
NCC(CCCN1Cc2ccccc2C(CNCCc2ccccc2)C1c1ccc(-c2ccccc2)cc1)NCc1ccccc1 (stereo not shown) [TRG 2411-126] = 5.88
CCCCNc1ccc(C2C(CNCCc3ccccc3)c3ccccc3CN2CCCCC(CN)NCC)cc1 (stereo not shown) [TRG 2411-74] = 6.96
NCC(CCCN1Cc2ccccc2C(CN)C1c1ccc(-c2ccccc2)cc1)NCc1ccccc1 (stereo not shown) [TRG 2411-149] = 5.93

Pending compound:
**Query** What value of measured pIC50 is listed for CCCCNC(CN)CCCN1Cc2ccccc2C(CNCCc2ccccc2)C1c1ccc(-c2ccccc2)cc1 (stereo not shown) [TRG 2411-124] ?
**Result** 5.81
